B1: PBXIP1 (parent)
chain: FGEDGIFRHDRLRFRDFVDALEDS

Variants of: B1
Assay: protein stability index of a GFP-peptide fusion (GPS, HEK-293T) (PSI 1-6); higher = more stable;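 note: lentivirally expressed fusions sorted by FACS into six bins by GFP to DsRed ratio, PSI derived from sequencing read proportions per bin multiplied by bin number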
Settings: c terminus: a fixed tail appended
Given measured protein stability index, output 1 if it is greater than or equal to 3 and -1 if not.

# Variant, Group label
measured = [
    ("G5Q", 1),
    ("L12G", 1),
    ("S24A", -1),
    ("S24C", 1),
    ("L12Q", 1),
    ("L12M", -1),
    ("E22V", -1),
    ("R15P", 1),
    ("D16H", -1),
    ("D4W", -1),
    ("F14T", 1),
    ("R8H", -1),
    ("D19T", -1),
    ("I6S", -1),
    ("H9L", -1),
    ("L21Q", 1),
    ("F17V", 1),
    ("D19F", -1),
    ("D19K", -1),
    ("D23P", -1),
    ("S24D", 1),
    ("L12H", -1),
    ("I6H", 1),
    ("I6D", 1),
    ("D10E", -1),
    ("E3G", -1),
    ("F14K", 1),
    ("F1D", 1),
    ("A20S", 1),
    ("F17W", -1),
    ("D4H", -1),
    ("D4F", -1),
    ("E22N", -1),
    ("S24P", -1),
    ("R15C", -1),
    ("V18K", 1),
    ("R8T", -1),
    ("R13M", -1),
    ("L12Y", -1),
    ("F14Y", -1),
    ("L21S", 1),
    ("D19W", -1),
    ("G2V", -1),
]

# credit: the supplement of paper PMC10567573
